Provenance of the data: ChEMBL document CHEMBL1201862

Reported values of GI50 for individual entries
# Test system: DLD-1
# Assay notes: NCI tumour cell line growth inhibition, 48 h
Active and inactive are the calls of the source. Rule as the data show it: active = GI50 up to about 1.1 µM and inactive = higher.

Reference set, count: 3
## Task Query (compound): O=S1(=O)C[C@@H](O)[C@H](O)CS1 ; field requested: GI50
## Result > 100 µM (inactive)

## Task Input COc1cc(CNc2cnc3cc(N)ccc3n2)cc(OC)c1OC
## Result 58.1 µM (inactive)

## Task Input N#Cc1c2nc3ccccc3nc2n2ccccc12
## Result > 100 µM (inactive)

We next turn to a different compound, shown below.
## Task Query (compound): Cc1ccc(S(=O)(=O)NC(C)C(=O)O)cc1 (centres undefined) ; field requested: GI50
## Result > 100 µM (inactive)

###

# System: LXFL 529
# Assay notes: NCI tumour cell line growth inhibition, 48 h
Calls of active or inactive are those of the source. Cut-off read from the data, not from the text of the source: active = GI50 up to about 1.1 µM and inactive = higher.
Output constraint: value belongs to active, inactive

Use the examples below as a reference point.
## Task How did this test come out for Cc1cc(C)nc(NS(=O)(=O)c2ccc(NC(=O)COC(=O)c3cccc4c(=O)c5ccccc5[nH]c34)cc2)n1 ?
## Result inactive

## Task Input CC(=O)c1c2c(cc3c1CC1(C3)Cc3cc4c(c(C(=O)O)c3C1)CCC4)CCC2 (stereo not drawn)
## Result inactive

## Task Input CCCCCCCCC/C=C/C=C/C(=O)NCC(=O)NC1C(O)C(O)C(Nc2ncnc3[nH]cnc23)OC1C(O)CO (stereo not drawn)
## Result active

## Task Input Cc1ccc(S(=O)(=O)N2c3ccccc3[C@H]3CCC=C[C@H]32)cc1
## Result inactive

## Task Input CC(=O)OC1CC[C@@]2(C)C(CC(OC3OC(CO)C(O)C(O)C3O)[C@]3(C)C2CCC24CC23CC[C@H]4C(C)CC(O)[C@@H](O)C(C)(C)O)C1(C)C (stereo partly drawn)
## Result inactive

## Task Input CC1=C(/C=C/C(C)=C/C=C/C(C)=C/C(=O)O)C(C)(C)CCC1
## Result inactive

***
## Task How did this test come out for Nc1nc2c(ncn2C2CCC(CO)O2)c(=O)n1C(=O)c1ccccc1 (stereo not drawn) ?
## Result inactive

## Task Input CC(CCCOC(c1ccccc1)(c1ccccc1)c1ccccc1)OC(=O)Nc1cc([N+](=O)[O-])cc([N+](=O)[O-])c1 (stereo not drawn)
## Result inactive

###

# Tested on: EKVX
# Assay notes: NCI tumour cell line growth inhibition, 48 h
Calls of active or inactive are those of the source. Rule as the data show it: active = GI50 up to about 1.1 µM and inactive = higher.
Reported values of GI50 for individual entries

Reference set, count: 4
## Task Query (molecule): O=C1C(Cl)C(c2cc(Br)ccc2O)N1n1cnc2ccccc2c1=O (stereo not given) ; field requested: GI50
## Result 3.4 µM (inactive)

## Task Input CCSC1=N/C(=C\c2ccccc2O)C(Nc2ccc(C)cc2)=N1
## Result > 100 µM (inactive)

## Task Input Cc1ncc(CO)c(/C=N/CCCCCC/N=C/c2c(CO)cnc(C)c2[O-])c1[O-].[Mg+2]
## Result > 100 µM (inactive)

## Task Input C#CCOCn1cnc2c(Sc3c([N+](=O)[O-])ncn3C)ncnc21
## Result > 100 µM (inactive)

We next turn to a different molecule, shown below.
## Task Query (molecule): CCOC(=O)C(=O)NNc1nc2c(s1)C(=O)c1ccccc1C2=O ; field requested: GI50
## Result 7.46 µM (inactive)
